system_under_test: Neu5Ac(a2-3)Gal(b1-4)GlcNAc(b1-6)[Neu5Ac(a2-3)Gal(b1-3)]GalNAc
protocol_description: glycan array binding signal (z-score within array); higher = stronger binding
reported_conditions: glycan notation: IUPAC condensed, linker removed
Only a selection was taken, and the strongest signals are over-represented in it overall.
assay_metric: glycan array binding signal (z-score)
Response field accepts a number only; no unit should be typed.

Consider the following illustrative entries.
| binder | glycan array binding signal (z-score) |
| --- | --- |
| LngA (Escherichia coli) (protein) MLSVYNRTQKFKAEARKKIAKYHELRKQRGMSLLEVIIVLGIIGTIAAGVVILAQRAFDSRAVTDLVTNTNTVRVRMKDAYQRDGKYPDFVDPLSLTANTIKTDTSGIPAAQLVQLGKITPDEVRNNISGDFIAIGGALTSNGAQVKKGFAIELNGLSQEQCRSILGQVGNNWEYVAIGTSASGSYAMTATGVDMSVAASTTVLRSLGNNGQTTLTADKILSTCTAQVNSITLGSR | -0.439 |
| rPitB (Streptococcus pneumoniae), A0A0I7U739 (protein) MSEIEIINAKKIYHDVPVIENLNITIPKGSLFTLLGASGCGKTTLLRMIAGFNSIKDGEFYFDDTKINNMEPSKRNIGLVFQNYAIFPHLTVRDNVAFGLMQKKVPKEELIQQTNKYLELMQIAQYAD | 0.027 |
| Epa3to1 (Candida glabrata) (protein) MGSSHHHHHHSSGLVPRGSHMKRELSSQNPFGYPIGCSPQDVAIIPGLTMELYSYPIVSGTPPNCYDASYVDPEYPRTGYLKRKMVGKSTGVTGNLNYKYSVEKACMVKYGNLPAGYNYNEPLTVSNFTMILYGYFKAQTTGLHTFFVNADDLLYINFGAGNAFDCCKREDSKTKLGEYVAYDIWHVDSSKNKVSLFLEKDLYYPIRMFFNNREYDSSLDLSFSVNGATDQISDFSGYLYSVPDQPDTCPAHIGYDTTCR | -0.382 |
| SAG1 (Toxoplasma gondii), P13664 (protein) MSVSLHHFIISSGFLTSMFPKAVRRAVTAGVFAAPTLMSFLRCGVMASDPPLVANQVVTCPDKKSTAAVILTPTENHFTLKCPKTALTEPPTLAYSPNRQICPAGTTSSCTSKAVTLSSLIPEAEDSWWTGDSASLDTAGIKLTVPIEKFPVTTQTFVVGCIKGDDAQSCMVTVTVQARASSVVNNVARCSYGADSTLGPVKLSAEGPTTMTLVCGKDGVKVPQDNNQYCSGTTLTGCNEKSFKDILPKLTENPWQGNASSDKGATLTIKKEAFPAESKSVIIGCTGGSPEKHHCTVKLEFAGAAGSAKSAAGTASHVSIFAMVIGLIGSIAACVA | 1.61 |
| HA-11100 (Pseudomonas aeruginosa), Q02G51_PSEAB (protein) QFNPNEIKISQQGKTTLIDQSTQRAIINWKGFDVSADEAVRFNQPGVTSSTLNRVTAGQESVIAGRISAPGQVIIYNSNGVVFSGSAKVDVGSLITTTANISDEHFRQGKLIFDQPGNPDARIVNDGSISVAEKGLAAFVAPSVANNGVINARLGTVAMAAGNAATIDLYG | -0.222 |
| BIp1-His (Cryptococcus neoformans) (protein) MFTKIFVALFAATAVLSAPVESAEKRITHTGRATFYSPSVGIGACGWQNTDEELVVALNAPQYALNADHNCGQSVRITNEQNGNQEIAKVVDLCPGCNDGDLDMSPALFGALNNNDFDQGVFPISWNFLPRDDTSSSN | -1.36 |

In the following, a different binder is considered.
Task: Check the records and state glycan array binding signal (z-score) for AFL5 (Aspergillus fumigatus), Q4WB00 (protein) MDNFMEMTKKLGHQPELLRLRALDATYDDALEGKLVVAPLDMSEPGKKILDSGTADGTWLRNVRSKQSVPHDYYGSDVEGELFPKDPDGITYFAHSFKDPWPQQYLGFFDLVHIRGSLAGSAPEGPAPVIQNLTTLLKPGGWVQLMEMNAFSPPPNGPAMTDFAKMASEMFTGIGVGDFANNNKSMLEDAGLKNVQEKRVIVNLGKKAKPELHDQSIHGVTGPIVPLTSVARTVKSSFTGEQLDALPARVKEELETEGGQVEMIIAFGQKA
Output: -0.74
